Reference for the values: paper PMC4409382

ASSAYED TARGET: 14-3-3ζ (Homo sapiens, UniProt P63104)
Construct: Both full-length 14-3-3ζ and 14-3-3ζΔC12 were expressed as N-terminally His-tagged protein; His tag (TEV-cleavable) (N, cleaved yes); made in house; host or cells: Escherichia coli BL21 (DE3) pLysS
EXPERIMENT SUMMARY: ITC of Cby peptides titrated into 14-3-3ζ
Format: binding
MEASUREMENT CONDITIONS: 298.15 K, duplicate set (S1 Table)
Square brackets hold non-standard residues; d marks the D form. Peptide text beside a SMILES is read from it. pS = N[C@@H](COP(=O)(O)O)C(=O)O
Simple rule here: T∆S less than 3 kcal/mol is Satisfied, otherwise Not satisfied.

COMPOUND | CLASS ASSIGNMENT
CC(C)C[C@H](NC(=O)[C@H](CC(N)=O)NC(=O)[C@@H]1CCCN1C(=O)[C@H](CC(C)C)NC(=O)[C@H](COP(=O)(O)O)NC(=O)[C@H](C)NC(=O)[C@H](CO)NC(=O)[C@H](CCCCN)NC(=O)[C@H](CCCNC(=N)N)NC(=O)[C@@H]1CCCN1C(=O)[C@@H]1CCCN1C(=O)[C@@H](NC(=O)[C@@H](N)CCCCN)[C@@H](C)O)C(=O)O [Cby 13-mer S22P] (H-KTPPRKSA[pS]LPNL-OH) | Not satisfied
CC(C)C[C@H](NC(=O)[C@H](COP(=O)(O)O)NC(=O)[C@H](C)NC(=O)[C@H](CO)NC(=O)[C@H](CCCCN)NC(=O)[C@H](CCCNC(=N)N)NC(=O)[C@@H]1CCCN1C(=O)[C@@H]1CCCN1C(=O)[C@@H](NC(=O)[C@@H](N)CCCCN)[C@@H](C)O)C(=O)N[C@@H](CO)C(N)=O [Cby 11-mer] (H-KTPPRKSA[pS]LS-NH2) | Not satisfied
CC(C)C[C@H](NC(=O)[C@H](CC(N)=O)NC(=O)[C@H](CO)NC(=O)[C@H](CC(C)C)NC(=O)[C@H](COP(=O)(O)O)NC(=O)[C@H](C)NC(=O)[C@H](CO)NC(=O)[C@H](CCCCN)NC(=O)[C@H](CCCNC(=N)N)NC(=O)[C@@H]1CCCN1C(=O)[C@@H]1CCCN1C(=O)[C@@H](NC(=O)[C@@H](N)CCCCN)[C@@H](C)O)C(=O)O [Cby 13-mer] (H-KTPPRKSA[pS]LSNL-OH) | Not satisfied
CC(C)C[C@H](NC(=O)[C@H](CO)NC(=O)[C@H](Cc1c[nH]cn1)NC(=O)[C@H](CC(C)C)NC(=O)[C@H](CC(N)=O)NC(=O)[C@@H]1CCCN1C(=O)[C@H](CC(C)C)NC(=O)[C@H](COP(=O)(O)O)NC(=O)[C@H](C)NC(=O)[C@H](CO)NC(=O)[C@H](CCCCN)NC(=O)[C@H](CCCNC(=N)N)NC(=O)[C@@H]1CCCN1C(=O)[C@@H]1CCCN1C(=O)[C@@H](NC(=O)[C@@H](N)CCCCN)[C@@H](C)O)C(=O)N[C@@H](CC(=O)O)C(=O)N[C@@H](CCCNC(=N)N)C(=O)O [Cby 18-mer S22P] (H-KTPPRKSA[pS]LPNLHSLDR-OH) | Satisfied
CC(=O)N[C@@H](CCCNC(=N)N)C(=O)N[C@@H](CCCCN)C(=O)N[C@@H](CO)C(=O)N[C@@H](C)C(=O)N[C@@H](COP(=O)(O)O)C(=O)N[C@@H](CC(C)C)C(=O)N1CCC[C@H]1C(N)=O [Cby 7-mer S22P] (Ac-RKSA[pS]LP-NH2) | Satisfied
CC(=O)N[C@@H](CCCNC(=N)N)C(=O)N[C@@H](CCCCN)C(=O)N[C@@H](CO)C(=O)N[C@@H](C)C(=O)N[C@@H](COP(=O)(O)O)C(=O)N[C@@H](CC(C)C)C(=O)N[C@@H](CO)C(N)=O [Cby 7-mer] (Ac-RKSA[pS]LS-NH2) | Satisfied

###

ASSAYED TARGET: 14-3-3ζ (Homo sapiens)
Construct: Both full-length 14-3-3ζ and 14-3-3ζΔC12 were expressed as N-terminally His-tagged protein; His tag (TEV-cleavable) (N, cleaved yes); made in house; host or cells: Escherichia coli BL21 (DE3) pLysS
EXPERIMENT SUMMARY: ITC of Cby peptides titrated into 14-3-3ζ
Assay type: binding
MEASUREMENT CONDITIONS: 298.15 K, pH 6.8, Table 1 set of duplicate experiments
Square brackets hold non-standard residues; d marks the D form. Peptide text beside a SMILES is read from it. pS = N[C@@H](COP(=O)(O)O)C(=O)O

COMPOUND | UNITS LABEL | ΔG
CC(C)C[C@H](NC(=O)[C@H](COP(=O)(O)O)NC(=O)[C@H](C)NC(=O)[C@H](CO)NC(=O)[C@H](CCCCN)NC(=O)[C@H](CCCNC(=N)N)NC(=O)[C@@H]1CCCN1C(=O)[C@@H]1CCCN1C(=O)[C@@H](NC(=O)[C@@H](N)CCCCN)[C@@H](C)O)C(=O)N[C@@H](CO)C(N)=O [Cby 11-mer] (H-KTPPRKSA[pS]LS-NH2) | kcal/mol | -6.49
CC(C)C[C@H](NC(=O)[C@H](CO)NC(=O)[C@H](Cc1c[nH]cn1)NC(=O)[C@H](CC(C)C)NC(=O)[C@H](CC(N)=O)NC(=O)[C@@H]1CCCN1C(=O)[C@H](CC(C)C)NC(=O)[C@H](COP(=O)(O)O)NC(=O)[C@H](C)NC(=O)[C@H](CO)NC(=O)[C@H](CCCCN)NC(=O)[C@H](CCCNC(=N)N)NC(=O)[C@@H]1CCCN1C(=O)[C@@H]1CCCN1C(=O)[C@@H](NC(=O)[C@@H](N)CCCCN)[C@@H](C)O)C(=O)N[C@@H](CC(=O)O)C(=O)N[C@@H](CCCNC(=N)N)C(=O)O [Cby 18-mer S22P] (H-KTPPRKSA[pS]LPNLHSLDR-OH) | kcal/mol | -8.79
CC(C)C[C@H](NC(=O)[C@H](COP(=O)(O)O)NC(=O)[C@H](C)NC(=O)[C@H](CO)NC(=O)[C@H](CCCCN)NC(=O)[C@H](CCCNC(=N)N)NC(=O)[C@@H]1CCCN1C(=O)[C@@H]1CCCN1C(=O)[C@@H](NC(=O)[C@@H](N)CCCCN)[C@@H](C)O)C(=O)N[C@@H](CO)C(=O)N[C@@H](CC(N)=O)C(=O)N[C@@H](CC(C)C)C(=O)N[C@@H](Cc1c[nH]cn1)C(=O)N[C@@H](CO)C(=O)N[C@@H](CC(C)C)C(=O)N[C@@H](CC(=O)O)C(=O)N[C@@H](CCCNC(=N)N)C(=O)O [Cby 18-mer] (H-KTPPRKSA[pS]LSNLHSLDR-OH) | kcal/mol | -7.28

###

Item-by-item account of ∆H
ASSAYED TARGET: 14-3-3ζ (Homo sapiens, UniProt P63104)
Construct: Both full-length 14-3-3ζ and 14-3-3ζΔC12 were expressed as N-terminally His-tagged protein; His tag (TEV-cleavable) (N, cleaved yes); made in house; host or cells: Escherichia coli BL21 (DE3) pLysS
Sequence (P63104 1-245): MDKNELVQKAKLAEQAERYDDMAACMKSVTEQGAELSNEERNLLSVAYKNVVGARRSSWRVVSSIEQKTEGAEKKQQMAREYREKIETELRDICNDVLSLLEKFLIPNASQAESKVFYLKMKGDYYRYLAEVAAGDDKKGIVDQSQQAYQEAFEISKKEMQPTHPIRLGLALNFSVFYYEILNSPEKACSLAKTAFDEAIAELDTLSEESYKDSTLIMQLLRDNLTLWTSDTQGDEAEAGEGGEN
EXPERIMENT SUMMARY: ITC of Cby peptides titrated into 14-3-3ζ
Type: binding
MEASUREMENT CONDITIONS: 298.15 K, duplicate set (S1 Table)
Square brackets hold non-standard residues; d marks the D form. Peptide text beside a SMILES is read from it. pS = N[C@@H](COP(=O)(O)O)C(=O)O

COMPOUND | UNITS LABEL | ∆H
CC(C)C[C@H](NC(=O)[C@H](CC(N)=O)NC(=O)[C@@H]1CCCN1C(=O)[C@H](CC(C)C)NC(=O)[C@H](COP(=O)(O)O)NC(=O)[C@H](C)NC(=O)[C@H](CO)NC(=O)[C@H](CCCCN)NC(=O)[C@H](CCCNC(=N)N)NC(=O)[C@@H]1CCCN1C(=O)[C@@H]1CCCN1C(=O)[C@@H](NC(=O)[C@@H](N)CCCCN)[C@@H](C)O)C(=O)O [Cby 13-mer S22P] (H-KTPPRKSA[pS]LPNL-OH) | kcal/mol | -4.70
CC(C)C[C@H](NC(=O)[C@H](CO)NC(=O)[C@H](Cc1c[nH]cn1)NC(=O)[C@H](CC(C)C)NC(=O)[C@H](CC(N)=O)NC(=O)[C@@H]1CCCN1C(=O)[C@H](CC(C)C)NC(=O)[C@H](COP(=O)(O)O)NC(=O)[C@H](C)NC(=O)[C@H](CO)NC(=O)[C@H](CCCCN)NC(=O)[C@H](CCCNC(=N)N)NC(=O)[C@@H]1CCCN1C(=O)[C@@H]1CCCN1C(=O)[C@@H](NC(=O)[C@@H](N)CCCCN)[C@@H](C)O)C(=O)N[C@@H](CC(=O)O)C(=O)N[C@@H](CCCNC(=N)N)C(=O)O [Cby 18-mer S22P] (H-KTPPRKSA[pS]LPNLHSLDR-OH) | kcal/mol | -7.97
CC(C)C[C@H](NC(=O)[C@H](CC(N)=O)NC(=O)[C@H](CO)NC(=O)[C@H](CC(C)C)NC(=O)[C@H](COP(=O)(O)O)NC(=O)[C@H](C)NC(=O)[C@H](CO)NC(=O)[C@H](CCCCN)NC(=O)[C@H](CCCNC(=N)N)NC(=O)[C@@H]1CCCN1C(=O)[C@@H]1CCCN1C(=O)[C@@H](NC(=O)[C@@H](N)CCCCN)[C@@H](C)O)C(=O)O [Cby 13-mer] (H-KTPPRKSA[pS]LSNL-OH) | kcal/mol | -2.60
CC(=O)N[C@@H](CCCNC(=N)N)C(=O)N[C@@H](CCCCN)C(=O)N[C@@H](CO)C(=O)N[C@@H](C)C(=O)N[C@@H](COP(=O)(O)O)C(=O)N[C@@H](CC(C)C)C(=O)N[C@@H](CO)C(N)=O [Cby 7-mer] (Ac-RKSA[pS]LS-NH2) | kcal/mol | -3.70
CC(=O)N[C@@H](CCCNC(=N)N)C(=O)N[C@@H](CCCCN)C(=O)N[C@@H](CO)C(=O)N[C@@H](C)C(=O)N[C@@H](COP(=O)(O)O)C(=O)N[C@@H](CC(C)C)C(=O)N1CCC[C@H]1C(N)=O [Cby 7-mer S22P] (Ac-RKSA[pS]LP-NH2) | kcal/mol | -6.21
CC(C)C[C@H](NC(=O)[C@H](COP(=O)(O)O)NC(=O)[C@H](C)NC(=O)[C@H](CO)NC(=O)[C@H](CCCCN)NC(=O)[C@H](CCCNC(=N)N)NC(=O)[C@@H]1CCCN1C(=O)[C@@H]1CCCN1C(=O)[C@@H](NC(=O)[C@@H](N)CCCCN)[C@@H](C)O)C(=O)N[C@@H](CO)C(N)=O [Cby 11-mer] (H-KTPPRKSA[pS]LS-NH2) | kcal/mol | -3.27
CC(C)C[C@H](NC(=O)[C@H](COP(=O)(O)O)NC(=O)[C@H](C)NC(=O)[C@H](CO)NC(=O)[C@H](CCCCN)NC(=O)[C@H](CCCNC(=N)N)NC(=O)[C@@H]1CCCN1C(=O)[C@@H]1CCCN1C(=O)[C@@H](NC(=O)[C@@H](N)CCCCN)[C@@H](C)O)C(=O)N[C@@H](CO)C(=O)N[C@@H](CC(N)=O)C(=O)N[C@@H](CC(C)C)C(=O)N[C@@H](Cc1c[nH]cn1)C(=O)N[C@@H](CO)C(=O)N[C@@H](CC(C)C)C(=O)N[C@@H](CC(=O)O)C(=O)N[C@@H](CCCNC(=N)N)C(=O)O [Cby 18-mer] (H-KTPPRKSA[pS]LSNLHSLDR-OH) | kcal/mol | -4.33
